Entries and their measured Inhibition on IL13 induced STAT6 phosphorylation (IC50, nM) follow.
measured-on: human IL4Rα expressed on HEK293T-IL4Rα-STAT6-STAT6LUC-LB2 cells (human, UniProt P24394 26-825)
measurement-description: cell-based or functional assay
Give the quantity in nM, number only.

Guide cases for Inhibition on IL13 induced STAT6 phosphorylation (IC50, nM), answers given:
1. mouse antibody C2B2F7B7 (antibody, V domains shown, Mouse hybridoma mAb) VH: EVQLVESGGGLVQPGGSLKLSCAASGFTFSTYGMSWVRQTPDKRLELVATINSNGGSTNYPDSVKGRFTISRDNAKNTLYLQMSSLKSEDTAMYYCARFFRIRNAMDYWGQGTSVTVSS VL: DIQMTQSPASLSASVGETVTITCRASENIYSYLAWYQQKQGKSPQFLVYNAKTLAEGVPSRFSGSGSGTQFSLKINSLQPEDFGSYYCQHYYGTPTWTFGGGTKLEIK ... 0.31
2. mouse antibody B1D2F7D3B5 (antibody, V domains shown, Mouse hybridoma mAb) VH: EVKLVESGGGLVKPGGSLKLSCAASGFTFSSYAMSWVRQTPEKRLEWVASISSGDSTYYLDSVKGRFTISRDNAMNILYLQMSSLRSEDTAVYYCERSGGSAPYWGQGTLVSVSA VL: QIVLTQSPAIMSASPGEMVTISCSASSSVSYMYWYQQKPGSSPKPWIYRTSNLASGVPARFSGSGSGTSYSLTISSMEAEDAATYYCQQYHSFPLTFGAGTKLELK ... 0.48
3. mouse antibody B8G11F2B7G5E8 (antibody, V domains shown, Mouse hybridoma mAb; also called Mouse B8G11F2B7G5E8; mAb B8G11F2B7G5E8) VH: EVQLQQSGADLVRPGASVKLSCTASGFNIKDTYMHWVKQRPEQGLEWVGRIDPTNGYTIYASKFQGKATITADTSSNTAYMQLSSLTSGDTAVYHCVSRRPWFAYWGQGTLVTVSA VL: DILMTQTPLSLPVSLGAQASISCRSSQSIVHSNGNTYLEWYLQKPGQSPKLLIYKVTNRFSGVPDRFSGSGSGTDFTLKISRVEAEDLGIYYCFQGSHVPYTFGGGTKLEIK ... 0.47

Then there is this binder:
Inhibition on IL13 induced STAT6 phosphorylation (IC50, nM) recorded for this binder, mouse antibody C2C1A1A1 (antibody, V domains shown, Mouse hybridoma mAb; also called Mouse C2C1A1A1) VH: EVQLVESGGGLVQPGGSLKLSCAASGFTFSTYGMSWVRQTPDKRLELVATINSNGGSTSYPDSVKGRFTISRDNAKNTLYLQMSSLKSEDTAMFYCARFFRFRNAMDYWGQGTSVTVSS VL: DIQMTQSPASLSASVGETVTITCRTSENIYSYLAWYQQKQGKSPQFLVYNAKTLAEGVPSRFSGSGSGTQFSLNINSLQSEDFGSYYCQHYYGPPTWTFGGGTKLEIK , is 0.23
